Could you please report measured Ki(TACE)/Ki(MMP-12) for the items listed next?
# Test target: recombinant human TACE (Homo sapiens)
# Construct: purchased R&D Systems
# Sequence (P78536 215-824): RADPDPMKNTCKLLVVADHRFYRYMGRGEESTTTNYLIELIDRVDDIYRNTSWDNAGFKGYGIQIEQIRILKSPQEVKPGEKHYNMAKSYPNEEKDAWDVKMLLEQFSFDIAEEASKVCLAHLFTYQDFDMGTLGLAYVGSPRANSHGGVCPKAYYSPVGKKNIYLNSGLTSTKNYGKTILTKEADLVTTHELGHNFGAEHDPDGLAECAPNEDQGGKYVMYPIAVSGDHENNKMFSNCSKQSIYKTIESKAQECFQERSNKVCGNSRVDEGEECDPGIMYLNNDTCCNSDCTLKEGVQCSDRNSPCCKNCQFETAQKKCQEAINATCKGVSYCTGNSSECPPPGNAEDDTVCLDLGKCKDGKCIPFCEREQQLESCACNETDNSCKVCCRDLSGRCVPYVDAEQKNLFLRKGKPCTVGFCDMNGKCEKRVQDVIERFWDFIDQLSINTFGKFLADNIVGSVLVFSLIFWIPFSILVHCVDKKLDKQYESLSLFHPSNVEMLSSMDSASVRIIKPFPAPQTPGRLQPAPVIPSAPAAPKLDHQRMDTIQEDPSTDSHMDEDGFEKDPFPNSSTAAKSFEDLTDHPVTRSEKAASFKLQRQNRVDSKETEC
# Procedure text: TACE enzyme assay (FRET substrate), selectivity versus MMP-12
# Format: biochemical
# Reported conditions: fold difference in Ki for TACE compared to MMP-12
# Experimental: The activity was measured by a continuous detection of increased fluorescence intensity during 12 min. The substrate consisted of a peptide with a fluorescent donor 7-methoxycoumarin (Mca) and a quenching acceptor 2,4-dinitrophenyl group (Dpa), typically Mca-P-L-A-Q-A-V-Dpa-R-S-S-S-R-NH2 (R&D Systems, ES003). […] Product fluorescence (emission filter 320 nM, excitation filter 405 nM) was monitored with a Thermo Labsystems Fluoroskan Ascent plate reader. The Ki was determined by Prism Software. […]
Please give only the number in your answer, with no unit.

## Task Entry "CC(C)[C@H](C(=O)NO)N1C(=O)N[C@@H](CCc2ccc(F)cc2)C1=O" has what Ki(TACE)/Ki(MMP-12)?
## Result 390

## Task Entry "CC(C)(C)[C@H](C(=O)NO)N1C(=O)N[C@@H](CCc2ccccc2)C1=O" has what Ki(TACE)/Ki(MMP-12)?
## Result 245

## Task Entry Cc1ccc(CCC2NC(=O)N(C(C(=O)NO)C(C)C)C2=O)cc1 (centres unmarked) has what Ki(TACE)/Ki(MMP-12)?
## Result 2200

## Task Entry "CC(C)[C@H](C(=O)NO)N1C(=O)N[C@@H](CCc2ccccc2)C1=O" has what Ki(TACE)/Ki(MMP-12)?
## Result 380

## Task Entry COc1cccc(CCC2NC(=O)N(C(C(=O)NO)C(C)C)C2=O)c1 (centres unmarked) has what Ki(TACE)/Ki(MMP-12)?
## Result 140
